Quick reference for pIC50 among some compounds
- Tested on: HT29
- assayNotes: Growth inhibition assay (MTT), HT29
- Assay type: cell-based
- conditionInfo: Homo sapiens, HT-29; HT29, Colon cancer; 72 hours, MTT; read-out: IC50
pIC50: −log10 of the molar value.
reportedProperty: pIC50

- compound: "CC(=O)OCOc1ccc(Cl)cc1C(=O)Nc1ccc([N+](=O)[O-])cc1Cl"
  observedResult: "< 4.30"
- compound: "O=C(Nc1ccc([N+](=O)[O-])cc1Cl)c1cc(Cl)ccc1O [#166, niclosamide, reference compound]"
  observedResult: 4.51
- compound: "O=C(Nc1ccc([N+](=O)[O-])cc1Cl)c1cc(Cl)ccc1OC1OC(CO)C(O)C(O)C1O (stereo not drawn)"
  observedResult: "< 4.30"

* * *

- assayNotes: Pharmacokinetic study (PK), i.v. in rats
- Assay type: in vivo
- conditionInfo: rat, blood, iv, 2 mg/kg i.v., mean

- compound: "O=C(Nc1ccc([N+](=O)[O-])cc1Cl)c1cc(Cl)ccc1OC1OC(CO)C(O)C(O)C1O (stereo not shown)"
  Cmax (ng/mL): 3880

* * *

The reader will find reported melting point values listed item by item below.
reportedProperty: melting point

- compound: "O=C(Nc1ccc([N+](=O)[O-])c(C(F)(F)F)c1)c1cc(Cl)ccc1O"
  reportedProperty: "melting point"
  observedResult: "172.4 to 174 °C"
- compound: "CC(=O)OCOc1ccc(Cl)cc1C(=O)Nc1ccc([N+](=O)[O-])cc1Cl [MPT0L180]"
  reportedProperty: "melting point"
  observedResult: "195.5 to 197.2 °C"
- compound: "O=C(Nc1ccc([N+](=O)[O-])cc1Cl)c1cc(Cl)ccc1OC1OC(CO)C(O)C(O)C1O (stereo not shown) [MPT0L167]"
  reportedProperty: "melting point"
  observedResult: "212.6 to 213.2 °C"
- compound: "O=C(Nc1ccc([N+](=O)[O-])cc1Cl)c1cc(Cl)ccc1OC(=O)N1CCC(N2CCCCC2)CC1 [MPT0L196]"
  reportedProperty: "melting point"
  observedResult: "216.3 to 217.9 °C"

* * *

- assayNotes: Pharmacokinetic study (PK), i.v. in rats
- Assay type: in vivo
- conditionInfo: rat, blood, iv, 2 mg/kg i.v., mean

- compound: "O=C(Nc1ccc([N+](=O)[O-])cc1Cl)c1cc(Cl)ccc1OC1OC(CO)C(O)C(O)C1O (stereo not shown)"
  MRT inf: "1.4 h"

* * *

- assayNotes: Pharmacokinetic study (PK), i.v. in rats
- Format: in vivo
- conditionInfo: rat, blood, iv, 2 mg/kg i.v., mean

- molecule: "O=C(Nc1ccc([N+](=O)[O-])cc1Cl)c1cc(Cl)ccc1OC1OC(CO)C(O)C(O)C1O (stereo not shown)"
  AUC(0-t) / ng·h/mL: 580

* * *

- assayNotes: Pharmacokinetic study (PK), i.v. in rats
- Assay type: in vivo
- conditionInfo: rat, blood, iv, 2 mg/kg i.v., mean
- Description: 2 mg/kg of niclosamide (MPT0L166) and MPT0L167, MPT0L180 and MPT0L196 were each independently given to five rats by i.v. The blood samples were taken from the rats after 0.03 hour, 0.08 hour, 0.25 hour, 0.5 hour, 1 hour, 2 hours, 4 hours, 6 hour, 8 hours and 24 hours. LC-MS/MS was used to detect the concentration of MPT0L167 in blood.

- compound: "O=C(Nc1ccc([N+](=O)[O-])cc1Cl)c1cc(Cl)ccc1OC1OC(CO)C(O)C(O)C1O (stereo not shown)"
  unit: "h"
  half-life: 7.38

Origin of measurements: patent US10745433B2
